Taken from patent US20240209089A1.

Record form. Attribute: OD450. Fill in for each entry.
# tested_target: T1, CD8α-Fc fusion protein (human)
# T1 construct: also called CD8 α-Fc protein; CD8α-Fc tag antigen
# T1 sequence (chain, as listed by the source): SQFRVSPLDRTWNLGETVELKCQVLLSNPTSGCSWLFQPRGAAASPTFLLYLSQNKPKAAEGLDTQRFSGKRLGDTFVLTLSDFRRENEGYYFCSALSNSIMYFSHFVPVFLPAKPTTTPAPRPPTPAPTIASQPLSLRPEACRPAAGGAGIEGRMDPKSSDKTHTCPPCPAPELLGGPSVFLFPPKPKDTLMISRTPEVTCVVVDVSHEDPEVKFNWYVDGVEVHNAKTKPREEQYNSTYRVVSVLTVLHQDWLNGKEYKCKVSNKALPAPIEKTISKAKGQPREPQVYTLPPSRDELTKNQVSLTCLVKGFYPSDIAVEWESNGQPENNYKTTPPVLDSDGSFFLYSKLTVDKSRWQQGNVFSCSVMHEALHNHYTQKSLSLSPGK
# assay_comment: phage ELISA on coated CD8α-Fc
// print number alone

Give a short answer stating reported OD450 for phage clone No. 53 (S5) (VHH) VHH: QVQLVESGGGLVQAGGSLRVSCAASGGTFSSTAMGWFRQAPGKEREFVAAISWSGGYTYYADSVRGRFTISRDNALNTVSLQMNSLKPEDTAVYYCAADISGLDTVAAGIFTEPNIDYWGKGTLVTVSS .
1.2

Supply measured OD450 of phage clone No. 46 (C46) (VHH) VHH: QVQLVESGGGLVQAGGSLRLSCAASGVTFDDLAIGWFRQVPGKGREGVSTIGTSDGTAYYADSVKGRFTISSDNAKNTVYLQMNSLKPEDTAVYYCAVDLDYGLGSLLPMGYDYWGQGTQVTVSS in your reply.
2.35

Respond only with OD450 recorded for phage clone No. 2 (C2) (VHH) VHH: QVQLVESGGGLVQPGGSLRLSCAASGFTLDYYAIGWFRQAPGKEREGISCIRIYDGNTYSAESVKGRFTISSDNAKNQVYLQINTLKPEDTAVYYCAAGSYYSCSVYPDYDMDYWGKGTLVTVSS
3.21

Identify measured OD450 associated with phage clone No. 20 (C20) (VHH) VHH: QVQLVESGGGLVQPGGSLRLSCAASGSIFSINTMGWYRQAPGKQRELVATMHSTGSTNYADSVKGRFTISRDNAKKTVYLQMNSLEPDDTAVYYCHVDDTGWGTVDSWGQGTQVTVS
3.19

Give OD450 for phage clone No. 42 (C42) (VHH) VHH: QVQLVESGGGLVQAGGSLRLSCAASGLTFEDYAIGWFRQAPGKEREGISCIRIYDGNTYSAESVKGRFTISSDNAKNQVYLQINTLKPEDTAVYYCAAGSYYSCSVYPDYDMDYWGKGTLVTVSS
3.18

Determine from records and report OD450 for phage clone No. 54 (S6) (VHH) VHH: QVQLVESGGGLVQPGGSLRLSCAVSGTIFSINTMGWYRQVPGKQRELVATITSSGSTKYADSVKGRFTVSRDNAKRTVFLQMDSLKPEDTAVYYCHANDVGWGTVNAWGQGTLVTVSS
1.3

Given the binder phage clone No. 70 (S22) (VHH) VHH: QLQLVESGGGLVQPGGSLRLSCAASGSIFSINTMGWYRQAPGKQRELVATMHSTGSTNYADSVKGRFTISRDNAKKTVYLQMNSLKPDDTAVYYCHVDDMGWGTVDSWGQGTQVTVSS , write its reported OD450.
1.73

Give OD450 for phage clone No. 77 (S29) (VHH) VHH: QLQLVESGGGLVQPGGSLRLSCTASGIIFSINTMGWYRQAPGKQRELVADISSFGSTNYADSVKGRFTISRDNAKNSVYLQMNSLKPEDTAVYYCNAHDKGWGTVDSWGQGTQVTVSS
1.63
